Test: protein stability index of a GFP-peptide fusion (GPS, HEK-293T) (PSI 1-6); higher = more stable;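 also: 24-mer peptide tiles fused after GFP, lentivirally expressed, FACS-sorted into six equal bins by GFP/DsRed ratio, decoded by Illumina sequencing, PSI is the read-weighted mean bin number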
Conditions: treatment: MLN4924 1 uM, 8 h; c terminus: a fixed tail appended

- inputSequence: "LIQNGGEIDCVDKDGNTPLHVAAR [ANKRD44]"
  protein stability index: 4.53
- inputSequence: "PQALATRALPCPAHVVFRYQGVRM [FCHSD1]"
  protein stability index: 2.69
- inputSequence: "EEQSDQSFSSLEPDNEQLMEEVIS [IQUB]"
  protein stability index: 5.61
- inputSequence: "VVDIFQTVKMLRTQRPAMVQTEDQ [PTPRD]"
  protein stability index: 3.06
- inputSequence: "PARAPPEPPHNLFCAPGSWEWNEL [SERTAD3]"
  protein stability index: 3.32
- inputSequence: "ASKWGMSYDELCFLEQRPQSPTLE [EDARADD]"
  protein stability index: 3.81
- inputSequence: "VQHERIHTGDKPYKCAECGKSFCH [ZNF8]"
  protein stability index: 4.68
- inputSequence: "LRNITNSQAPDGRRKSEAGSGAAS [CDC25B]"
  protein stability index: 5.1
- inputSequence: "IACYVMKHYRFTHAEIIAWIRICR [CDC14A]"
  protein stability index: 2.24
- inputSequence: "PPAQGRVSRRLSPRKVSTCTDHEL [TRIM9]"
  protein stability index: 4.87
- inputSequence: "LLADVKGARAALNEIESRHRELLR [STX11]"
  protein stability index: 3.3
- inputSequence: "FSKSKELHPDRDPGNPSLHSRFVE [DNAJC4]"
  protein stability index: 4.22
- inputSequence: "ERLTAPEILLHPWFESVLEPGYID [TRIB1]"
  protein stability index: 3.3
- inputSequence: "VFKCSVSRETECSRVGKQSFIITL [CARM1]"
  protein stability index: 2.61
- inputSequence: "ILNSVEKYDPHTGHWTNVTPMATK [KLHL12]"
  protein stability index: 3.43
- inputSequence: "ERPQDRDTPVQNKRRRSVTPPEEQ [CDC25B]"
  protein stability index: 5.32
- inputSequence: "ETELAMRQSVENDIHGLRKVIDDT [KRT18]"
  protein stability index: 5.2
- inputSequence: "DLGEGKICFCCEEFQPAKCTDKEN [FAM189A2]"
  protein stability index: 4.07
- inputSequence: "IQSKLGIVSLLLGTIHALIFAWNK [STEAP1]"
  protein stability index: 2.22
- inputSequence: "RPEKHTKEQILEFLVLEQFLTILP [ZNF232]"
  protein stability index: 3.4
- inputSequence: "LRPPHTSRGTSQTPNASSPGNPTA [LPCAT4]"
  protein stability index: 4.85
- inputSequence: "PAAAPEGDWARLLEQMGALAVRGS [ZBED3]"
  protein stability index: 3.59
- inputSequence: "RLSSRYRYGQLIEINSHSLFSKWF [TRIP13]"
  protein stability index: 2.04
- inputSequence: "YKKGRMMKDISNLEENDETRFILS [SLC6A17]"
  protein stability index: 3.09
- inputSequence: "EVFYYSCEYNFVSPSKSFWTRITC [CFHR2]"
  protein stability index: 2.31
- inputSequence: "AAWIGGFLHSLVQFLFIYQLPFCG [OR4A15]"
  protein stability index: 3.21
